System: Beet Armyworm (Spodoptera exigua)
Test: Insecticidal test for beet armyworm, treated lepidopteran diet
Assay type: in vivo
Parameters: key: A: 90–100; B: 80–89; C: 70–79; D: 60–69; E: 50–59; F: less than 50; G: Inactive
Conditions: on diet surface, second-instar larvae, 5 days
property label: BAW: activity at 400 ppm against beet armyworm (% control rating)

Reference set, count: 5
Cn1nc(-c2c(F)cccc2Cl)nc1-c1csc(-c2ccc(OC(F)(F)F)cc2F)c1
G
Cc1sc(-c2cccc(OC(F)(F)F)c2)cc1-c1nc(-c2c(F)cccc2Cl)nn1C
G
Cn1nc(-c2c(F)cccc2Cl)nc1-c1csc(-c2ccc(Cl)cc2F)c1
G
Cc1cc(-c2cccc(OC(F)(F)F)c2)sc1-c1nc(-c2c(F)cccc2Cl)nn1C
G
CCCOc1ccc(-c2scc(-c3nc(-c4c(F)cccc4Cl)nn3C)c2C)cc1
A (90–100)

List the reported BAW: activity at 400 ppm against beet armyworm (% control rating) of each compound below.
1. Cc1c(-c2nc(-c3c(F)cccc3Cl)nn2C)csc1-c1ccc(Oc2ccccc2)cc1
2. Cn1nc(-c2c(F)cccc2Cl)nc1-c1sc(-c2ccc(Br)cc2)c(Cl)c1Cl

## Result
1. A (90–100)
2. A (90–100)

// field: BAW: activity at 400 ppm against beet armyworm (% control rating); key: `Cc1cc(-c2cccc(C(F)(F)F)c2F)sc1-c1nc(-c2c(F)cccc2Cl)nn1C` ; value = A (90–100)

====

Tested on: Beet Armyworm (Spodoptera exigua)
Assay: Insecticidal test for beet armyworm, treated lepidopteran diet
Assay type: in vivo
Design: key: A: 90–100; B: 80–89; C: 70–79; D: 60–69; E: 50–59; F: less than 50; G: Inactive
Settings: on diet surface, second-instar larvae, 5 days
property label: BAW: activity at 400 ppm against beet armyworm (% control rating)

Reference set, count: 4
Cc1c(-c2nc(-c3c(F)cccc3F)nn2C)csc1-c1ccc(C(F)(F)F)cc1Cl
G
CC(C)=COc1ccc(-c2scc(-c3nc(-c4c(F)cccc4Cl)nn3C)c2C)cc1
A (90–100)
Cc1sc(-c2cc(C(F)(F)F)ccc2F)cc1-c1nc(-c2c(F)cccc2Cl)nn1C
G
Cc1c(-c2nc(-c3c(F)cccc3Cl)nn2C)csc1-c1ccc(F)cc1
G

Next compound, BAW: activity at 400 ppm against beet armyworm (% control rating) to be filled in.
Observed BAW: activity at 400 ppm against beet armyworm (% control rating) on Beet Armyworm (Spodoptera exigua), entry `Cc1c(-c2nc(-c3c(F)cccc3Cl)nn2C)csc1-c1ccc(OCC(F)(F)F)cc1` , equals A (90–100)

====

Test system: Beet Armyworm (Spodoptera exigua)
Assay: Insecticidal test for beet armyworm, treated lepidopteran diet
Format: in vivo
Design: key: A: 90–100; B: 80–89; C: 70–79; D: 60–69; E: 50–59; F: less than 50; G: Inactive
Settings: on diet surface, second-instar larvae, 5 days
property label: BAW: activity at 400 ppm against beet armyworm (% control rating)

Reference set, count: 5
Cc1c(-c2nc(-c3c(F)cccc3Cl)nn2C)csc1-c1ccc(OC(C)C)cc1
G
Cc1sc(-c2ccc(C(F)(F)F)cc2F)c(C)c1-c1nc(-c2c(F)cccc2Cl)nn1C
A (90–100)
Cc1c(-c2nc(-c3c(F)cccc3Cl)nn2C)csc1-c1cccc(OC(F)(F)F)c1
G
Cc1c(-c2nc(-c3c(F)cccc3Cl)nn2C)csc1-c1ccc(OC(F)(F)CF)cc1
A (90–100)
Cc1c(-c2nc(-c3c(F)cccc3Cl)nn2C)csc1-c1ccc(Cl)cc1F
G

List the reported BAW: activity at 400 ppm against beet armyworm (% control rating) of each compound below.
1. Cn1nc(-c2c(F)cccc2Cl)nc1-c1cc(-c2ccc(Cl)cc2F)sc1Cl
2. Cn1nc(-c2c(F)cccc2Cl)nc1-c1cc(-c2cccc(OC(F)(F)F)c2)sc1Cl

## Result
["A (90–100)", "G"]

// field: BAW: activity at 400 ppm against beet armyworm (% control rating); key: Cc1c(-c2nc(-c3c(F)cccc3Cl)nn2C)csc1-c1ccc(F)cc1F [drawing 233] ; value = G
